Numbers sourced from paper PMC4072787.

Test system: CHIKV
assayNotes: microbe, parasite or virus in culture
Assay type: cell-based, Chikungunya virus
testContext: Chikungunya virus, 72 h, read-out: Antiviral Activity (IC50), CHIKV
resultType: IC50

# molecule, result
records = [
    ("CCN1CCN(Cc2nc3ccc([N+](=O)[O-])cc3c(=O)n2-c2ccccc2F)CC1 [CID15997213]", "> 50 µM"),
]

====

assayNotes: in vitro
testContext: PAMPA

# structureString, Papp [×10⁻⁶ cm/s]
records = [
    ("CCN1CCN(Cc2nc3ccc([N+](=O)[O-])cc3c(=O)n2-c2ccccc2F)CC1", 42),
]

====

Test system: MDR1
assayNotes: in vitro
testContext: dog, MDCK-MDR1
resultType: efflux ratio

# structureString, result
data = [
    ("CCN1CCN(Cc2nc3ccc([N+](=O)[O-])cc3c(=O)n2-c2ccccc2F)CC1", 5.3),
]

====

Tested on: VACV-LREV
assayNotes: microbe, parasite or virus in culture
Type: cell-based, vaccinia virus (western reserve)
testContext: Vaccinia virus Western Reserve, A549, 18 h, read-out: Antiviral Activity (IC50), VACV-LREV

# structureString, IC50
measured = [
    ("CCN1CCN(Cc2nc3ccc([N+](=O)[O-])cc3c(=O)n2-c2ccccc2F)CC1", "> 20 µM"),
]

====

assayNotes: in vitro
testContext: mouse, plasma, Mean plasma fraction unbound

# molecule, fraction unbound
measured = [
    ("CCN1CCN(Cc2nc3ccc([N+](=O)[O-])cc3c(=O)n2-c2ccccc2F)CC1 [CID15997213]", 0.324),
]
